Cited source: patent US20250281631A1

- MEASURED_TARGET: T1, human epidermal growth factor receptor 3 (HER3) (human, UniProt P21860 20-1342)
- T1 construct: whole, on cells; also called ErbB3; Erbb3
- ASSAY_PROCEDURE: flow cytometry on KPL-4 cells
- From the text: The affinity of anti-human HER3 ADC to MDA-MB-453, NCI-H358, KPL-4, and A431 cells was detected by flow cytometry (Beckman, model Cytoflex). […]
EXPERIMENTAL_READOUT: EC50 (µg/mL)
API: value field is a number in µg/mL; no unit string.

Q) Would you kindly share the measured EC50 for ADC 22B6-A-01 (antibody, human IgG1, kappa, V domains shown, drug-linker A-01 on a cysteine sulfhydryl group; LC-DAR1 ratio 0.990; drug-linker A-01 on cysteine sulfhydryl groups after TCEP reduction; mainly 3 per heavy chain (HC-DAR3 ratio 0.981)) VH: EVHLVESGGGVVQPGRSLRLSCATSGFTFRSYGMHWVRQAPGKGLEWVAVIWYDGSNKYYADSVKGRFTISRDISKNTLYLQMNSLTAEDTAVYYCARYYYDSNGYYDAFDIWGQGTMVTVSS VL: DIQLTQSPSFLSASVGDRVTITCRASQGISNYLAWYQQKPGKAPKLLIFAASTLQSGVPSRFSGSGSGAEFTLTISSLEPEDFATYYCQQLNSYPITFGQGTRLEIKR ?
A) 0.0387
